# Test system: Plasmodium falciparum NF54 stage V gametocytes
# METHOD DESCRIPTION: viability index relative to DMSO control (fraction); higher = less gametocyte killing
# EXPERIMENTAL SETUP: 1.25 µM, incubation time: 72 h
The full ranking holds about 3,600 compounds; the median of “viability index relative to DMSO control” is about 0.81, and the lowest 2% start at about 0.13. This is one part of a sample in which the lowest values are shown more often than they occur.
Assign labels as follows, please: true (1) for viability index below 0.4; false (0) for viability index equal to or exceeding 0.4.

Item `Cc1cc(N2CCC(C)CC2)nc(-n2nc(C)cc2C)n1` : viability index beneath 0.4, strictly?
true (1)

And then `O=C1OC(c2ccccc2)=NC1=C(Cl)Cl` , what is it?
false (0)

And then `Cc1cc(C)n(-c2ncc(-c3ccc([N+](=O)[O-])cc3)cn2)n1` , what is it?
false (0)

And then CCCOC(=O)C1=C(C)NC2=C(C(=O)CC(c3ccc(OC)c(OC)c3)C2)C1c1ccc([N+](=O)[O-])cc1 (stereo not given) , what is it?
false (0)

And then `O=C(c1ccc([N+](=O)[O-])cc1)c1ccc(Cl)c(Cl)c1` , what is it?
false (0)

And then CC(C)NCC(O)Cn1c2ccc(Cl)cc2c2cc(Cl)ccc21 (stereo not given) , what is it?
false (0)

And then `CCSC(Cl)=C(NC(=O)c1ccccc1)[P+](c1ccccc1)(c1ccccc1)c1ccccc1` , what is it?
true (1)

And then S=C(NN=Cc1ccccn1)NC1CC2C=CC1C2 (stereo not given) , what is it?
true (1)

And then `O=[N+]([O-])c1cccc(Cl)c1N1CCN(S(=O)(=O)Cc2ccccc2)CC1` , what is it?
false (0)

---

# Tested on: Plasmodium falciparum NF54 stage V gametocytes
# METHOD DESCRIPTION: viability index relative to DMSO control (fraction); higher = less gametocyte killing
# EXPERIMENTAL SETUP: 1.25 µM, incubation time: 72 h
The full ranking holds about 3,600 compounds; the median of “viability index relative to DMSO control” is about 0.81, and the lowest 2% start at about 0.13. The full list was thinned out, with the lowest values kept by preference.
OUTCOME MEASURE: viability index
Lab note: record just the number, no unit beside it.

I would be grateful if you could share the reported viability index for `Cc1ccc(-c2noc(C3CCN(C(=O)Nc4ccc(C#N)cc4)CC3)n2)o1` .
0.957

And then `Oc1cccc(Nc2nc(NCc3ccco3)c3ccccc3n2)c1` , what is it?
0.595

And then `O=[N+]([O-])c1ccc(S(=O)(=O)N2CCN(C(=S)NCc3ccccc3)CC2)cc1` , what is it?
0.163

And then `CC(C)c1nc(N2CCN(C(=S)NCc3ccccc3)CC2)c(C#N)c2c1COC(C)(C)C2` , what is it?
0.0888

And then `CC1(C)Cc2c(sc(NC(=O)CCl)c2C#N)CO1` , what is it?
0.556

---

# System: Plasmodium falciparum NF54 stage V gametocytes;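 note: Saponin-lysis sexual stage assay in serum-free medium: MitoTracker Red CMXRos staining plus saponin, high-content imaging, particle count per well divided by plate mean of DMSO wells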
# METHOD DESCRIPTION: viability index relative to DMSO control (fraction); higher = less gametocyte killing
# EXPERIMENTAL SETUP: 1.25 µM, incubation time: 72 h
The full ranking holds about 3,600 compounds; the median of “viability index relative to DMSO control” is about 0.81, and the lowest 2% start at about 0.13. Many of the other results were omitted from the sample, so the lowest values are more common in it than they were.
Assign labels as follows, please: 1 for viability index below 0.8; 0 for viability index equal to or exceeding 0.8.

Item `Cc1ccnc(Nc2nc(-c3ccc(Cl)cc3)cs2)c1` : viability index beneath 0.8, strictly?
0

And then `Fc1cccc2sc(Nc3nc(-c4ccccn4)cs3)nc12` , what is it?
1

And then `Cc1nc2sccn2c1-c1csc(Nc2ccccn2)n1` , what is it?
0

And then `CC(=O)Nc1nc(C)c(-c2csc(Nc3ccc(C)cc3)n2)s1` , what is it?
1
